// provenance: patent US11472778B2

Tested system: wild-type GT1a NS3/4A protease (UniProt P27958)
Construct: Ki WT; other: wild-type HCV NS3/4A protease
Format: biochemical, Hepatitis C virus
Details: read-out: Ki (nM) WT; Table 8; linear inhibitors
Observed property: Ki (nM)
Field format: number, assumed nM, no unit text.

Use the examples below as a reference point.
C=C[C@@H]1C[C@]1(NC(=O)[C@@H]1C[C@@H](Oc2nc3cc(OC)ccc3nc2C)CN1C(=O)[C@@H](NC(=O)OC(C)(C)C)C(C)(C)C)C(=O)NS(=O)(=O)C1CC1 :: 18
C=C[C@@H]1C[C@]1(NC(=O)[C@@H]1C[C@@H](Oc2nc3cc(OC)ccc3nc2C(C)C)CN1C(=O)[C@@H](NC(=O)OC(C)(C)C)C(C)(C)C)C(=O)NS(=O)(=O)C1CC1 :: 32
C=C[C@@H]1C[C@]1(NC(=O)[C@@H]1C[C@@H](Oc2nc3cc(OC)ccc3nc2C(C)C)CN1C(=O)[C@@H](NC(=O)OC1CCCC1)C(C)(C)C)C(=O)NS(=O)(=O)C1CC1 [Compound 11c] :: 17
C=C[C@@H]1C[C@]1(NC(=O)[C@@H]1C[C@@H](Oc2nc3cc(OC)ccc3nc2C)CN1C(=O)[C@@H](NC(=O)OC1CCCC1)C(C)(C)C)C(=O)NS(=O)(=O)C1(C)CC1 [Compound 12b] :: 7.1
C=C[C@@H]1C[C@]1(NC(=O)[C@@H]1C[C@@H](Oc2nc3cc(OC)ccc3nc2CC)CN1C(=O)[C@@H](NC(=O)OC1CCCC1)C(C)(C)C)C(=O)NS(=O)(=O)C1CC1 [Compound 11a] :: 9.8

Shifting focus to the molecule that follows.
Task: Answer with the recorded Ki of C=C[C@@H]1C[C@]1(NC(=O)[C@@H]1C[C@@H](Oc2nc3cc(OC)ccc3nc2Cl)CN1C(=O)[C@@H](NC(=O)OC(C)(C)C)C(C)(C)C)C(=O)NS(=O)(=O)C1(C)CC1 [Compound 10d] only.
Output: 6.1

* * *

Ki listing for selected molecules.
Tested system: GT1a R155K NS3/4A protease (UniProt P27958, R1181K, species not given)
Format: biochemical, Hepatitis C virus
Details: read-out: Ki (nM) R155K; Table 8; linear inhibitors
Field format: number, assumed nM, no unit text.

Use the examples below as a reference point.
C=C[C@@H]1C[C@]1(NC(=O)[C@@H]1C[C@@H](Oc2nc3cc(OC)ccc3nc2C(F)(F)F)CN1C(=O)[C@@H](NC(=O)OC(C)(C)C)C(C)(C)C)C(=O)NS(=O)(=O)C1CC1 [Compound 9e] :: 24
C=C[C@@H]1C[C@]1(NC(=O)[C@@H]1C[C@@H](Oc2nc3cc(OC)ccc3nc2C(F)(F)F)CN1C(=O)[C@@H](NC(=O)OC1CCCC1)C(C)(C)C)C(=O)NS(=O)(=O)C1(C)CC1 [Compound 12e] :: 22
C=C[C@@H]1C[C@]1(NC(=O)[C@@H]1C[C@@H](Oc2nc3cc(OC)ccc3nc2C(C)C)CN1C(=O)[C@@H](NC(=O)OC(C)(C)C)C(C)(C)C)C(=O)NS(=O)(=O)C1(C)CC1 [Compound 10c] :: 27
C=C[C@@H]1C[C@]1(NC(=O)[C@@H]1C[C@@H](Oc2nc3cc(OC)ccc3nc2CC)CN1C(=O)[C@@H](NC(=O)OC(C)(C)C)C(C)(C)C)C(=O)NS(=O)(=O)C1(C)CC1 [Compound 10a] :: 14
C=C[C@@H]1C[C@]1(NC(=O)[C@@H]1C[C@@H](Oc2nc3cc(OC)ccc3nc2Cl)CN1C(=O)[C@@H](NC(=O)OC(C)(C)C)C(C)(C)C)C(=O)NS(=O)(=O)C1CC1 [Compound 9d] :: 2.2

Task: Please tell me the measured Ki for C=C[C@@H]1C[C@]1(NC(=O)[C@@H]1C[C@@H](Oc2nc3cc(OC)ccc3nc2C(F)(F)F)CN1C(=O)[C@@H](NC(=O)OC(C)(C)C)C(C)(C)C)C(=O)NS(=O)(=O)C1(C)CC1 [Compound 10e] ; system: GT1a R155K NS3/4A protease (UniProt P27958, R1181K, species not given).
Output: 12

Task: Please tell me the measured Ki for C=C[C@@H]1C[C@]1(NC(=O)[C@@H]1C[C@@H](Oc2nc3cc(OC)ccc3nc2C)CN1C(=O)[C@@H](NC(=O)OC1CCCC1)C(C)(C)C)C(=O)NS(=O)(=O)C1CC1 [Compound 11b] ; system: GT1a R155K NS3/4A protease (UniProt P27958, R1181K, species not given).
Output: 9.6

Task: Please tell me the measured Ki for C=C[C@@H]1C[C@]1(NC(=O)[C@@H]1C[C@@H](Oc2nc3cc(OC)ccc3nc2C(C)C)CN1C(=O)[C@@H](NC(=O)OC(C)(C)C)C(C)(C)C)C(=O)NS(=O)(=O)C1CC1 [Compound 9c] ; system: GT1a R155K NS3/4A protease (UniProt P27958, R1181K, species not given).
Output: 49

Task: Please tell me the measured Ki for C=C[C@@H]1C[C@]1(NC(=O)[C@@H]1C[C@@H](Oc2nc3cc(OC)ccc3nc2CC)CN1C(=O)[C@@H](NC(=O)OC(C)(C)C)C(C)(C)C)C(=O)NS(=O)(=O)C1CC1 [Compound 3] ; system: GT1a R155K NS3/4A protease (UniProt P27958, R1181K, species not given).
Output: 17

Task: Please tell me the measured Ki for C=C[C@@H]1C[C@]1(NC(=O)[C@@H]1C[C@@H](Oc2nc3cc(OC)ccc3nc2Cl)CN1C(=O)[C@@H](NC(=O)OC1CCCC1)C(C)(C)C)C(=O)NS(=O)(=O)C1CC1 [Compound 11d] ; system: GT1a R155K NS3/4A protease (UniProt P27958, R1181K, species not given).
Output: 4.1

* * *

System: HCV replicon A156T variant in Huh7 cells
Test summary: microbe, parasite or virus in culture
Format: cell-based, Hepatitis C virus
Details: Table 4; relative to WT replicon
Observed property: Replicon EC50 (Fold change) A156T

CCc1nc2ccc(OC)cc2nc1O[C@@H]1C[C@H]2C(=O)N[C@]3(C(=O)NS(=O)(=O)C4CC4)C[C@H]3/C=C\CCCCC[C@H](NC(=O)OC(C)(C)C)C(=O)N2C1 [Compound 2] :: (29) fold
COc1ccc2nc(Cl)c(O[C@@H]3C[C@H]4C(=O)N[C@]5(C(=O)NS(=O)(=O)C6(C)CC6)C[C@H]5/C=C\CCCCC[C@H](NC(=O)OC5CCCC5)C(=O)N4C3)nc2c1 [Compound 23c] :: (29) fold

* * *

Tested system: GT1a D168A NS3/4A protease (UniProt P27958, C1185S/D1194A, species not given)
Construct: Ki (nM) GT1a D168A NS3/4A Protease
Format: biochemical, Hepatitis C virus
Details: read-out: Ki (nM) GT1a D168A NS3/4A Protease; Table 1
Lab note: cut-off is 80 nM. Strictly less in Ki is y. Exactly 80 nM or more is n.

Field: example entries. Status: answers known.
COc1ccc2nc(C)c(O[C@@H]3C[C@H]4C(=O)N[C@]5(C(=O)NS(=O)(=O)C6(C)CC6)C[C@H]5/C=C\CCCCC[C@H](NC(=O)OC(C)(C)C)C(=O)N4C3)nc2c1 [Compound 19b] :: y
CCc1nc2ccc(OC)cc2nc1O[C@@H]1C[C@H]2C(=O)N[C@]3(C(=O)NS(=O)(=O)C4CC4)C[C@H]3/C=C\CCCCC[C@H](NC(=O)OC(C)(C)C)C(=O)N2C1 :: n
COc1ccc2nc(Cl)c(O[C@@H]3C[C@H]4C(=O)N[C@]5(C(=O)NS(=O)(=O)C6(C)CC6)C[C@H]5/C=C\CCCCC[C@H](NC(=O)OC5CCCC5)C(=O)N4C3)nc2c1 [Compound 23c] :: y
CCc1nc2ccc(OC)cc2nc1O[C@@H]1C[C@H]2C(=O)N[C@]3(C(=O)NS(=O)(=O)C4(C)CC4)C[C@H]3/C=C\CCCCC[C@H](NC(=O)OC(C)(C)C)C(=O)N2C1 [Compound 19a] :: y
COc1ccc2nc(C(F)(F)F)c(O[C@@H]3C[C@H]4C(=O)N[C@]5(C(=O)NS(=O)(=O)C6(C)CC6)C[C@H]5/C=C\CCCCC[C@H](NC(=O)OC(C)(C)C)C(=O)N4C3)nc2c1 [Compound 19d] :: n
O=C(N[C@H]1CCCCC/C=C\[C@@H]2C[C@@]2(C(=O)NS(=O)(=O)C2CC2)NC(=O)[C@@H]2C[C@@H](Oc3nc4ccccc4nc3-c3cccs3)CN2C1=O)OC1CCCC1 [Compound 22f] :: n
COc1ccc2nc(C)c(O[C@@H]3C[C@H]4C(=O)N[C@]5(C(=O)NS(=O)(=O)C6CC6)C[C@H]5/C=C\CCCCC[C@H](NC(=O)OC5CCCC5)C(=O)N4C3)nc2c1 [Compound 22b] :: y

Task: Is the reported Ki for COc1ccc2nc(C(F)(F)F)c(O[C@@H]3C[C@H]4C(=O)N[C@]5(C(=O)NS(=O)(=O)C6CC6)C[C@H]5/C=C\CCCCC[C@H](NC(=O)OC(C)(C)C)C(=O)N4C3)nc2c1 [Compound 18d] strictly below 80 nM?
Output: n
